target: human TrkA kinase (Homo sapiens, UniProt P04629); construct: The intracellular domain of a His-tagged human TrkA kinase; His; assay: TrkA kinase assay (AlphaScreen); conditions: intracellular domain of His-tagged human TrkA, 20 μM ATP (=Km)
Sequence (P04629 440-796 limits assumed): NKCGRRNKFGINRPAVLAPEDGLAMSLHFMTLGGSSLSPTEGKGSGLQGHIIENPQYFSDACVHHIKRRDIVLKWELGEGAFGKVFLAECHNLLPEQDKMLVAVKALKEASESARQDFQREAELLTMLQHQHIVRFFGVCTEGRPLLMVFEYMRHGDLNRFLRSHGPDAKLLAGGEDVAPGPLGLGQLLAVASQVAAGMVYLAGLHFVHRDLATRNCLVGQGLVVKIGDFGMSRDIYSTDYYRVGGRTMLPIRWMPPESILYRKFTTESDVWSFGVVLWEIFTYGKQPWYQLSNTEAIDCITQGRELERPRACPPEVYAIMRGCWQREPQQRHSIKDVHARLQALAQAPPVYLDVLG
MEASUREMENT NAME: IC50 (µM)
Entry rule: numbers only, all in µM.

Query: I'd like to know its IC50. The molecule in question is OC[C@H](Nc1ncc(F)c(Nc2cc(C3CC3)[nH]n2)n1)c1ccc(F)cc1
Response: 0.075

Query: I'd like to know its IC50. The molecule in question is OCC[C@H](Nc1ncc(Cl)c(Nc2cc(C3CC3)[nH]n2)n1)c1ccc(F)cc1
Response: 0.039

Query: I'd like to know its IC50. The molecule in question is C[C@H](Nc1ncc(Cl)c(Nc2cc(C3CC3)n[nH]2)n1)c1ccc(F)cc1
Response: 0.035

---

target: human TrkB kinase (Homo sapiens, UniProt Q16620); construct: The intracellular domain of a HIS-tagged human TrkB kinase; HIS; assay: TrkB kinase assay (HTRF); settings: intracellular domain of HIS-tagged human TrkB
Sequence (Q16620 455-822 limits assumed): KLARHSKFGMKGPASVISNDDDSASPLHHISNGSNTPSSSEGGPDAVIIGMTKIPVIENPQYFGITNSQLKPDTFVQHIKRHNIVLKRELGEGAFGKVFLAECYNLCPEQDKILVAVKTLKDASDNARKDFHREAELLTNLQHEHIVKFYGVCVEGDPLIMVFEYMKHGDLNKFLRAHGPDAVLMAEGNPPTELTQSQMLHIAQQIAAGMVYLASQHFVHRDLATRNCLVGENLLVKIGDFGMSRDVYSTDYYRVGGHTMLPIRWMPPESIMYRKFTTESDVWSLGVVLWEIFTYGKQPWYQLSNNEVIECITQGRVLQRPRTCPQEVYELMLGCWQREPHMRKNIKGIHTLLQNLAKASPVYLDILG
Hi there, I'd appreciate the recorded pIC50 for every entry that follows.
In plain terms, pIC50 is the concentration in mol/L turned into minus its base-10 logarithm.

Query: I'd like to know its pIC50. The compound in question is C[C@H](Nc1ncc(Cl)c(Nc2cc(C3CC3)n[nH]2)n1)c1ccc(F)cc1
Response: 6.85

Query: I'd like to know its pIC50. The compound in question is OCC[C@H](Nc1ncc(Cl)c(Nc2cc(C3CC3)[nH]n2)n1)c1ccc(F)cc1
Response: 6.66

Query: I'd like to know its pIC50. The compound in question is OC[C@H](Nc1ncc(F)c(Nc2cc(C3CC3)[nH]n2)n1)c1ccc(F)cc1
Response: 6.59
